System: CCRF-CEM
Experiment: NCI tumour cell line growth inhibition, 48 h
Calls of active or inactive are those of the source. Cut-off read from the data, not from the text of the source: active = GI50 up to about 1.1 µM and inactive = higher.
A collection of compounds and their measured GI50

For orientation, consider the following solved cases.
compound	result
O=c1cc(-c2ccccc2)[nH]c2c(F)ccc(F)c12	> 100 µM (inactive)
O=C1N=C2SC(=S)N=C(S)N2NC12c1ccccc1-c1ccccc12	7.78 µM (inactive)
O=C(/C=C/c1ccccc1)Oc1ccc(C(=O)/C=C/c2ccccc2)cc1	3.3 µM (inactive)
C1CSCCSCCCS[C@@H]2CCCCC2SC1 (some centres not stated)	20.8 µM (inactive)
Cc1cc(OC(=O)c2c(C)cc(OC(=O)c3c(C)cc(O)cc3O)cc2O)cc(O)c1C(=O)O [GYROPHORIC ACID]	> 100 µM (inactive)
COc1cc(Br)c(C2OCCCO2)cc1OCc1ccccc1	94.2 µM (inactive)
CC[As](CC)SCC1OC(OC(C)=O)C(OC(C)=O)C(OC(C)=O)C1OC(C)=O (configuration not stated)	3.05 µM (inactive)
OCC(S)CS.[Bi] (configuration not stated)	1.25 µM (inactive)

Sample CN1C[C@@H]2CCCN2P1Oc1cccc2cccnc12 (some centres not stated) ; GI50 observed: 2.41 µM (inactive)

Note to self: GI50 recorded for CCOC(=O)c1c(C)nc2c3ccccc3c(C#N)c(C)n12 was > 100 µM (inactive)

Entry under test: CCCCCCCCCCNCCSSCc1ccc(Cl)cc1 . Its GI50 was 1.64 µM (inactive)

Value of GI50 reported for the compound COc1ccc(/C=C2\N=C(N3CCOCC3)NC2=O)cc1 is > 100 µM (inactive)

Measured GI50 of CCOC(=O)c1ccc(/N=C\c2ccc(N(CCC#N)CCC#N)cc2)cc1 : 46.9 µM (inactive)

====

Test system: OVCAR-8
Assay: NCI tumour cell line growth inhibition, 48 h
Calls of active or inactive are those of the source. No stated cut-off is given here; in the data, active = GI50 up to about 1.1 µM and inactive = higher.
Select the correct class. Options are class 1 for active, class 0 for inactive and nothing else.

Sample answers from the record:
compound	subject_of_test	assigned_class
CC1(C)OC2C(COC(c3ccccc3)(c3ccccc3)c3ccccc3)OC(c3c[nH]c4c(N)ncnc34)C2O1 (stereo not given)	OVCAR-8	class 0
Cc1ccc(-c2n[nH]c(=O)n2N)cc1	OVCAR-8	class 0
O=C1CC(S(=O)(=O)O)C=C1Nc1cccc(Cl)c1 (stereo not given)	OVCAR-8	class 0
Cc1ccc2c(c1)C(=O)C(Cc1ccccc1C(=O)O)C2 (stereo not given)	OVCAR-8	class 0

Asked: What is the recorded call for this compound in the test? COc1cc([C@@H]2c3cc4c(cc3[C@@H](OC3OC5CO[C@@H](c6cccs6)OC5C(O)C3O)[C@H]3COC(=O)[C@H]23)OCO4)cc(OC)c1O (stereo not given in full)
Given back: class 1

====

Test system: SK-MEL-5
Assay: NCI tumour cell line growth inhibition, 48 h
Activity calls are given as the source filed them. Cut-off read from the data, not from the text of the source: active = GI50 up to about 1.1 µM and inactive = higher.
observable: GI50

GI50 measured on c1ccc2sc(C3(N4CCC5(CC4)OCCO5)CCCCC3)cc2c1 = 50.5 µM (inactive)

Entry C=C=C(Sc1ccccc1)C(C)(C)OC(C)=O , GI50 reported as 15.8 µM (inactive)

Recorded GI50 (compound COc1ccc(/C=C/c2nnc(S)[nH]2)cc1 ): > 100 µM (inactive)

====

System: UACC-257
Experiment: NCI tumour cell line growth inhibition, 48 h
Activity calls are given as the source filed them. Cut-off read from the data, not from the text of the source: active = GI50 up to about 1.1 µM and inactive = higher.
observable: GI50

Some solved entries appear below for comparison.
compound	GI50
CC(C)[C@@H]1CC[C@@H](C)C[C@H]1OC(=O)/C=C1\C(C(=O)O[C@@H]2C[C@H](C)CC[C@H]2C(C)C)[C@H]2C=C[C@@H]1O2 (stereo not given in full)	35 µM (inactive)
O=C(O)C1CC2C=CCC(C2)C1 (stereo not given)	> 100 µM (inactive)
COc1ccc(/C=C/C(=O)c2sc(NC(=S)NC(=O)c3ccc(Cl)cc3)nc2C)cc1OC	47.5 µM (inactive)
Nc1ccc2c(c1)N(C(=O)c1cc3cc(NC(=O)c4cc5ccccc5o4)ccc3[nH]1)CC2CCl (stereo not given)	0.113 µM (active)

Shift focus to the following entry.
GI50 reported for this compound CCOC(=O)c1cc2c(C(=O)c3ccc([N+](=O)[O-])cc3)c(C(C)=O)ccc2[nH]1 : > 100 µM (inactive)
